biological target: UniProt O14842; experiment: Assay I: IP1 accumulation (IPOne assay system) in 1321N1 cells stably expressing human GPR40 receptor; type: cell-based; details: stimulated 1 hour at 37° C., 10% CO2, LiCl 50 mM
I'd appreciate it if you marked entries t when EC50 is lower than 10 nM and f when it is not.

Cc1ccccc1Cc1c(C#N)ccc2c1CC[C@H]2Oc1ccc2c(c1)OC[C@H]2CC(=O)O [Example 6] ... t
Cc1cccc(C)c1Cc1c(C#N)ccc2c1CC[C@H]2Oc1ccc2c(c1)OC[C@H]2CC(=O)O [Example 5] ... t

For this compound, is EC50 lower than 10 nM? N#Cc1ccc2c(c1Cc1ccc(Cl)nc1)CC[C@H]2Oc1ccc2c(c1)OC[C@H]2CC(=O)O [Example 2]
f

For this compound, is EC50 lower than 10 nM? N#Cc1ccc2c(c1Cc1ccccc1)CC[C@H]2Oc1ccc2c(c1)OC[C@H]2CC(=O)O [Example 1]
t

For this compound, is EC50 lower than 10 nM? COc1ccc(Cc2c(C#N)ccc3c2CC[C@H]3Oc2ccc3c(c2)OC[C@H]3CC(=O)O)cc1 [Example 4]
t

For this compound, is EC50 lower than 10 nM? N#Cc1ccc2c(c1Cc1ccc(O)cc1)CC[C@H]2Oc1ccc2c(c1)OC[C@H]2CC(=O)O [Example 11]
f

For this compound, is EC50 lower than 10 nM? COc1cccc(Cc2ccc(F)c3c2CC[C@H]3Oc2ccc3c(c2)OC[C@H]3CC(=O)O)c1 [Example 14]
t

For this compound, is EC50 lower than 10 nM? CS(=O)(=O)c1ccc(Cc2c(C#N)ccc3c2CC[C@H]3Oc2ccc3c(c2)OC[C@H]3CC(=O)O)cc1 [Example 8]
f

For this compound, is EC50 lower than 10 nM? COc1ccc(Cc2ccc(F)c3c2CC[C@H]3Oc2ccc3c(c2)OC[C@H]3CC(=O)O)cc1 [Example 13]
t

For this compound, is EC50 lower than 10 nM? CSc1ccc(Cc2c(C#N)ccc3c2CC[C@H]3Oc2ccc3c(c2)OC[C@H]3CC(=O)O)cc1 [Example 7]
f

For this compound, is EC50 lower than 10 nM? O=C(O)C[C@@H]1COc2cc(O[C@@H]3CCc4c(Cc5ccccc5)ccc(F)c43)ccc21 [Example 16]
t

For this compound, is EC50 lower than 10 nM? COc1cccc(Cc2c(C#N)ccc3c2CC[C@H]3Oc2ccc3c(c2)OC[C@H]3CC(=O)O)c1 [Example 3]
f

For this compound, is EC50 lower than 10 nM? O=C(O)C[C@@H]1COc2cc(O[C@@H]3CCc4c3ccc(C(F)(F)F)c4Cc3ccccc3)ccc21 [Example 10]
t

For this compound, is EC50 lower than 10 nM? O=C(O)C[C@@H]1COc2cc(O[C@@H]3CCc4c(Cc5ccc(Cl)nc5)ccc(F)c43)ccc21 [Example 15]
f

For this compound, is EC50 lower than 10 nM? N#Cc1cccc(Cc2c(C#N)ccc3c2CC[C@H]3Oc2ccc3c(c2)OC[C@H]3CC(=O)O)c1 [Example 9]
f

For this compound, is EC50 lower than 10 nM? C[S+]([O-])c1ccc(Cc2c(C#N)ccc3c2CC[C@H]3Oc2ccc3c(c2)OC[C@H]3CC(=O)O)cc1 (stereo partly shown) [Example 12]
f

* * *

molecular target: human GPR40 receptor (Homo sapiens, UniProt O14842); experiment: Assay II: IP1 accumulation (IPOne assay system) in 1321N1 cells stably expressing human GPR40 receptor; type: cell-based; conditions: stimulated 1 h at 37° C., 5% CO2, LiCl 50 mM
Sequence (O14842 whole entry): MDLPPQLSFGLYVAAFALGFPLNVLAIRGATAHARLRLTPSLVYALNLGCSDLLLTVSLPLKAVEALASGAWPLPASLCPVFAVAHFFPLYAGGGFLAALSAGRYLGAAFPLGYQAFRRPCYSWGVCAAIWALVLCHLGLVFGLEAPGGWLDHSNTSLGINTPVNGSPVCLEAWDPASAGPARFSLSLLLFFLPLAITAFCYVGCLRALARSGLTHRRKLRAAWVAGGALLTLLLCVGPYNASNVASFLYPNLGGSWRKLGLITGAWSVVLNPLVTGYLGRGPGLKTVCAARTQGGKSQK
RESULT_TYPE: pEC50
For clarity, pEC50 is expressed as the negative log10 of concentration in mol/L.

Consider the reported pEC50 for these compounds:
N#Cc1ccc2c(c1Cc1ccccc1F)CC[C@H]2Oc1ccc2c(c1)OC[C@H]2CC(=O)O ... 8.22
N#Cc1ccc(Cc2ccc(F)c3c2CC[C@H]3Oc2ccc3c(c2)OC[C@H]3CC(=O)O)cc1 ... 6.23
N#Cc1ccc2c(c1Cc1c(F)cccc1F)CC[C@H]2Oc1ccc2c(c1)OC[C@H]2CC(=O)O ... 8.30
COc1ccc(Cc2c(C(F)(F)F)ccc3c2CC[C@H]3Oc2ccc3c(c2)OC[C@H]3CC(=O)O)cc1 ... 8.70
N#Cc1cccc(Cc2c(C(F)(F)F)ccc3c2CC[C@H]3Oc2ccc3c(c2)OC[C@H]3CC(=O)O)c1 ... 8.40

Please give measured pEC50 of the following entry: `COc1cccc(Cc2c(C(F)(F)F)ccc3c2CC[C@H]3Oc2ccc3c(c2)OC[C@H]3CC(=O)O)c1`
8.30

Please give measured pEC50 of the following entry: `O=C(O)C[C@@H]1COc2cc(O[C@@H]3CCc4c3ccc(C(F)(F)F)c4Cc3ccc(F)cc3)ccc21`
8.70

Please give measured pEC50 of the following entry: `N#Cc1ccc2c(c1Cc1cccc(F)c1)CC[C@H]2Oc1ccc2c(c1)OC[C@H]2CC(=O)O`
7.92

Please give measured pEC50 of the following entry: `O=C(O)C[C@@H]1COc2cc(O[C@@H]3CCc4c3ccc(C(F)(F)F)c4Cc3ccccc3F)ccc21`
8.70

Please give measured pEC50 of the following entry: `O=C(O)C[C@@H]1COc2cc(O[C@@H]3CCc4c3ccc(C(F)(F)F)c4Cc3ccc(O)cc3)ccc21`
8.70

Please give measured pEC50 of the following entry: `Cc1ccccc1Cc1c(C(F)(F)F)ccc2c1CC[C@H]2Oc1ccc2c(c1)OC[C@H]2CC(=O)O`
8.70

Please give measured pEC50 of the following entry: `O=C(O)C[C@@H]1COc2cc(O[C@@H]3CCc4c3ccc(C(F)(F)F)c4Cc3ccc(F)cc3F)ccc21`
8.70

Please give measured pEC50 of the following entry: `N#Cc1ccccc1Cc1c(C(F)(F)F)ccc2c1CC[C@H]2Oc1ccc2c(c1)OC[C@H]2CC(=O)O`
8.70

* * *

Some compounds, each annotated with its measured EC50.
target: human GPR40 receptor (Homo sapiens, UniProt O14842); experiment: Assay II: IP1 accumulation (IPOne assay system) in 1321N1 cells stably expressing human GPR40 receptor; assay type: cell-based; conditions: stimulated 1 h at 37° C., 5% CO2, LiCl 50 mM
Numeric answer only, unit nM assumed.

Consider the reported EC50 for these compounds:
N#Cc1ccc2c(c1Cc1cccc(F)c1F)CC[C@H]2Oc1ccc2c(c1)OC[C@H]2CC(=O)O [Example 32] ... 8
O=C(O)C[C@@H]1COc2cc(O[C@@H]3CCc4c(Cc5ccc(F)cc5F)ccc(F)c43)ccc21 [Example 21] ... 15
N#Cc1ccc2c(c1Cc1ccc(F)cc1)CC[C@H]2Oc1ccc2c(c1)OC[C@H]2CC(=O)O [Example 23] ... 11
O=C(O)C[C@@H]1COc2cc(O[C@@H]3CCc4c(Cc5c(F)cccc5F)ccc(F)c43)ccc21 [Example 19] ... 23
O=C(O)C[C@@H]1COc2cc(O[C@@H]3CCc4c3ccc(C(F)(F)F)c4Cc3ccc(Cl)cc3)ccc21 [Example 37] ... 4
COc1ccc(OC)c(Cc2c(C(F)(F)F)ccc3c2CC[C@H]3Oc2ccc3c(c2)OC[C@H]3CC(=O)O)c1 [Example 40] ... 5

Please give measured EC50 of the following entry: O=C(O)C[C@@H]1COc2cc(O[C@@H]3CCc4c3ccc(C(F)(F)F)c4Cc3cccc(F)c3)ccc21 [Example 29]
3

* * *

Some molecules, each annotated with its measured pEC50.
molecular target: human GPR40 receptor (Homo sapiens, UniProt O14842); test: Assay II: IP1 accumulation (IPOne assay system) in 1321N1 cells stably expressing human GPR40 receptor; format: cell-based; settings: stimulated 1 h at 37° C., 5% CO2, LiCl 50 mM
For clarity, pEC50 is expressed as the negative log10 of concentration in mol/L.

Please give measured pEC50 of the following entry: `CS(=O)(=O)c1ccc(Cc2c(C(F)(F)F)ccc3c2CC[C@H]3Oc2ccc3c(c2)OC[C@H]3CC(=O)O)cc1`
7.62

Please give measured pEC50 of the following entry: `COc1ccc(Cc2c(C(F)(F)F)ccc3c2CC[C@H]3Oc2ccc3c(c2)OC[C@H]3CC(=O)O)cn1`
9.00

Please give measured pEC50 of the following entry: `O=C(O)C[C@@H]1COc2cc(O[C@@H]3CCc4c(Cc5cc(F)cc(F)c5)ccc(F)c43)ccc21`
7.57
